Recorded Percent Similarity Score (KD on hN) values for a group of binders are listed next.
# target-or-test-system: T1, human NGF (human, UniProt P01138 122-241)
# T1 construct: also called human Nerve Growth Factor; hN
# T1 chain: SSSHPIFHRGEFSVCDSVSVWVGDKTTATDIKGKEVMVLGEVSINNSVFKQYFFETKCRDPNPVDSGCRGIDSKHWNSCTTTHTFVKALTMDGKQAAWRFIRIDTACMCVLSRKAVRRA
# test-details: SPR (Biacore T200), 100 nM mAb on NGF chip, similarity to parent mAb
# Description: The region of an antibody responsible for antigen recognition represents the paratope. A paratope is created by a combination of amino acids in the complementarity determining regions (CDRs) of both the heavy and light chain variable regions. The binding between antibody and antigen is often mediated by side chains of CDR residues with side chains or carbohydrate moieties of the antigen. […]

binder	uom	Percent Similarity Score (KD on hN)
can48L2VL_G97A (antibody, V domains shown, CDR scanning mutant of ZTS-842 (48L2)) VH: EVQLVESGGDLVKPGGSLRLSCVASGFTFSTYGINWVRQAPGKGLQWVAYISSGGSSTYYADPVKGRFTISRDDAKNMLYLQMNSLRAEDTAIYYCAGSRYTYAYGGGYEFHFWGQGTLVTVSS VL: QAVLNQPASVSGALGQKVTISCSGSTMDIDIFGVSWYQQLPGKAPKLLVDSDGDRPSGIPDRFSGSRSGNSGTLTITGLQAEDEADYHCQSGDSTLAALAIFGGGTHVTVL	%	100
can9L12VH_H32A (antibody, V domains shown) VH: EVQLVESGGDLVKPGGSLRLSCVASGFTFSSAGMHWVRQSPGKGLQWVAVINSGGSSTYYTDAVKGRFTISRDNAKNTVYLQMNSLRAEDTAMYYCAKESVGGWEQLVGPHFDYWGQGTLVIVSS VL: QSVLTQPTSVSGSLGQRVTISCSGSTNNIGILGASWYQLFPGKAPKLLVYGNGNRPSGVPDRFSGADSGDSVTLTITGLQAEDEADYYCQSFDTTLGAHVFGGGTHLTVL	%	13.8
can48L2VL_D93A (antibody, V domains shown, CDR scanning mutant of ZTS-842 (48L2)) VH: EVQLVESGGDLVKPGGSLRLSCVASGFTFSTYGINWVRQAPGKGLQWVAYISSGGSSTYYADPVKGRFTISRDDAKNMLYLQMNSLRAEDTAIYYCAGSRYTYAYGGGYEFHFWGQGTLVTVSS VL: QAVLNQPASVSGALGQKVTISCSGSTMDIDIFGVSWYQQLPGKAPKLLVDSDGDRPSGIPDRFSGSRSGNSGTLTITGLQAEDEADYHCQSGASTLGALAIFGGGTHVTVL	%	99.9
can9L12VL_V100A (antibody, V domains shown) VH: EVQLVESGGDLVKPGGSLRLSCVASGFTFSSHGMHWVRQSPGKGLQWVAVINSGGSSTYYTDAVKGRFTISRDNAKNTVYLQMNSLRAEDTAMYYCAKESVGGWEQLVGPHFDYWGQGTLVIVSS VL: QSVLTQPTSVSGSLGQRVTISCSGSTNNIGILGASWYQLFPGKAPKLLVYGNGNRPSGVPDRFSGADSGDSVTLTITGLQAEDEADYYCQSFDTTLGAHAFGGGTHLTVL	%	15.7
can48L2VH_S52A (antibody, V domains shown, CDR scanning mutant of ZTS-842 (48L2)) VH: EVQLVESGGDLVKPGGSLRLSCVASGFTFSTYGINWVRQAPGKGLQWVAYIASGGSSTYYADPVKGRFTISRDDAKNMLYLQMNSLRAEDTAIYYCAGSRYTYAYGGGYEFHFWGQGTLVTVSS VL: QAVLNQPASVSGALGQKVTISCSGSTMDIDIFGVSWYQQLPGKAPKLLVDSDGDRPSGIPDRFSGSRSGNSGTLTITGLQAEDEADYHCQSGDSTLGALAIFGGGTHVTVL	%	100
can9L12VL_O90A (antibody, V domains shown) VH: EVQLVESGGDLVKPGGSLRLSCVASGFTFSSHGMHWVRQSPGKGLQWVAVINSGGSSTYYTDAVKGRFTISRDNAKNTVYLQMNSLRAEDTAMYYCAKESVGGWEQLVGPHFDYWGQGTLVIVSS VL: QSVLTQPTSVSGSLGQRVTISCSGSTNNIGILGASWYQLFPGKAPKLLVYGNGNRPSGVPDRFSGADSGDSVTLTITGLQAEDEADYYCASFDTTLGAHVFGGGTHLTVL	%	19.3
can48L2VL_Q90A (antibody, V domains shown, CDR scanning mutant of ZTS-842 (48L2)) VH: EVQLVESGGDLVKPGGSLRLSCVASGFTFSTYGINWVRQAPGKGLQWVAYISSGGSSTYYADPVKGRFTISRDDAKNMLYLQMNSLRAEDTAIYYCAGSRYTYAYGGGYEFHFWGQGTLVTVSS VL: QAVLNQPASVSGALGQKVTISCSGSTMDIDIFGVSWYQQLPGKAPKLLVDSDGDRPSGIPDRFSGSRSGNSGTLTITGLQAEDEADYHCASGDSTLGALAIFGGGTHVTVL	%	99.9
can9L12VH_K98A (antibody, V domains shown) VH: EVQLVESGGDLVKPGGSLRLSCVASGFTFSSHGMHWVRQSPGKGLQWVAVINSGGSSTYYTDAVKGRFTISRDNAKNTVYLQMNSLRAEDTAMYYCAAESVGGWEQLVGPHFDYWGQGTLVIVSS VL: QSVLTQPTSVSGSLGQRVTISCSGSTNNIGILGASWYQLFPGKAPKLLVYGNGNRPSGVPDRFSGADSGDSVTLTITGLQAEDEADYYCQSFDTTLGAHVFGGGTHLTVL	%	8.58
can48L2VL_G92A (antibody, V domains shown, CDR scanning mutant of ZTS-842 (48L2)) VH: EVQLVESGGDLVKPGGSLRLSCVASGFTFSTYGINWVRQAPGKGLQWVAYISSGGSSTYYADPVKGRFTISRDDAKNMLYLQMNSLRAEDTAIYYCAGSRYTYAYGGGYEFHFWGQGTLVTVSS VL: QAVLNQPASVSGALGQKVTISCSGSTMDIDIFGVSWYQQLPGKAPKLLVDSDGDRPSGIPDRFSGSRSGNSGTLTITGLQAEDEADYHCQSADSTLGALAIFGGGTHVTVL	%	99.3
can48L2VL_F32A (antibody, V domains shown, CDR scanning mutant of ZTS-842 (48L2)) VH: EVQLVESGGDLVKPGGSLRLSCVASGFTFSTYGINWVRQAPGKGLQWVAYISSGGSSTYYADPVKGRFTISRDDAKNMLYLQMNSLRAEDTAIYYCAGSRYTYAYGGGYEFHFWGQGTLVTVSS VL: QAVLNQPASVSGALGQKVTISCSGSTMDIDIAGVSWYQQLPGKAPKLLVDSDGDRPSGIPDRFSGSRSGNSGTLTITGLQAEDEADYHCQSGDSTLGALAIFGGGTHVTVL	%	44.3

Every entry's value here was drawn from patent US20210221899A1.
